Source: patent US8865698B2

- Study system: histidine-tagged recombinant human TrkA, cytoplasmic domain (Homo sapiens (Human), UniProt P04629)
- Sequence (P04629 440-796): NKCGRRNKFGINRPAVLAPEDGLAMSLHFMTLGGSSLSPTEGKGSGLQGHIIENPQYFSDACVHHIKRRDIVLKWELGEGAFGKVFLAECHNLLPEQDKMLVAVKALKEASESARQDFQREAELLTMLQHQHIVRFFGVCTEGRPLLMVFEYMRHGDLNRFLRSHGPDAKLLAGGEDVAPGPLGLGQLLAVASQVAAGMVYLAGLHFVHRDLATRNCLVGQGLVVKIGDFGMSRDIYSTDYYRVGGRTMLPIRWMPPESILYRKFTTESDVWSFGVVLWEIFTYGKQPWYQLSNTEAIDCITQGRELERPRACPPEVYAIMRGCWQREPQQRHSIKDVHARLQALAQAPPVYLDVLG
- Assay explanation: TrkA ELISA Assay
- Format: biochemical
- Stated conditions: 2.5 nM TrkA, 500 μM ATP, 25 minutes; read-out: TrkA Elisa Enzyme IC50
Measured property: IC50 (nM)

Recorded results for 5 compounds are shown here.
>  <Compound>
COC1CN(C(=O)Nc2cnn3ccc(N4CCC[C@@H]4c4cc(F)ccc4Cl)nc23)C1

>  <Measured property>
IC50

>  <Quantitative readout>
27.9

$$$$
>  <Compound>
O=C(Nc1cnn2ccc(N3CCC[C@@H]3c3cc(F)ccc3Cl)nc12)N1CC(O)C1

>  <Measured property>
IC50

>  <Quantitative readout>
13.7

$$$$
>  <Compound>
COC(=O)C(=O)Nc1cnn2ccc(N3CCC[C@@H]3c3cc(F)ccc3F)nc12

>  <Measured property>
IC50

>  <Quantitative readout>
7.65

$$$$
>  <Compound>
O=C(Nc1cnn2ccc(N3CCC[C@@H]3c3cc(F)cc(Cl)c3)nc12)N1CC(O)C1

>  <Measured property>
IC50

>  <Quantitative readout>
171

$$$$
>  <Compound>
COc1ncccc1C(=O)Nc1cnn2ccc(N3CCC[C@@H]3c3cccc(F)c3)nc12

>  <Measured property>
IC50

>  <Quantitative readout>
5.7

$$$$

[I] CNC(=O)C(=O)Nc1cnn2ccc(N3CCC[C@@H]3c3cc(F)ccc3F)nc12
[II] O=C(Nc1cnn2ccc(N3CCC[C@@H]3c3cc(F)ccc3Cl)nc12)N1CCC[C@H](O)C1
[III] O=C(Nc1cnn2ccc(N3CCC[C@@H]3c3cccc(F)c3)nc12)c1cccnc1
Task: Highest IC50 first, then in falling order down to the smallest. Please respond with the labels ordered as the question requires.
Result: III, II, I
(III: 53.3 nM, II: 13.4 nM, I: 7.65 nM)
